TEST_DESCRIPTION: Half life in rat at 10 mg/kg, iv administered as single dose
Type: ADME, organism-based
Design: dose 10 mg/kg, route intravenous
EXPERIMENTAL_CONDITIONS: in vivo
RECORDED_METRIC: half-life (h)

CC(C)(C)Oc1cccc2nc(N)nc(N)c12	1.3

* * *

TEST_DESCRIPTION: Plasma clearance in rat at 10 mg/kg, iv administered as single dose
Format: ADME, organism-based
Design: dose 10 mg/kg, route intravenous
RECORDED_METRIC: clearance (mL/min/kg)

CC(C)(C)Oc1cccc2nc(N)nc(N)c12	6.56

* * *

TEST_DESCRIPTION: Cmax in rat at 20 mg/kg, po administered as single dose measured 2 hrs post dose
Type: ADME, organism-based
Parameters: dose 20 mg/kg, route oral
EXPERIMENTAL_CONDITIONS: in vivo
RECORDED_METRIC: Cmax (ng/mL)

CC(C)(C)Oc1cccc2nc(N)nc(N)c12	249

* * *

TEST_DESCRIPTION: Mean residence time in rat at 10 mg/kg, iv administered as single dose
Format: ADME, organism-based
Design: dose 10 mg/kg, route intravenous
EXPERIMENTAL_CONDITIONS: in vivo
RECORDED_METRIC: MRT

CC(C)(C)Oc1cccc2nc(N)nc(N)c12	1.8 h

* * *

TEST_DESCRIPTION: Oral bioavailability in rat at 20 mg/kg administered as single dose
Format: ADME, organism-based
EXPERIMENTAL_CONDITIONS: in vivo
RECORDED_METRIC: bioavailability

CC(C)(C)Oc1cccc2nc(N)nc(N)c12	69%

* * *

TEST_DESCRIPTION: Selectivity index, ratio of CC50 for hamster BHK cells to EC50 for Dengue virus 2
Assay type: toxicity, cell-based
EXPERIMENTAL_CONDITIONS: read-out: Ratio CC50/EC50
# selectivity ratio per record follows
RECORDED_METRIC: selectivity ratio

Nc1nc(N)c2c(Oc3ccccc3)cccc2n1	> 300
Nc1nc(N)c2c(N3CCCC3)cccc2n1	8
CCOc1cccc2nc(N)nc(N)c12	> 200
Nc1nc(N)c2c(OCc3ccccc3)cccc2n1	> 200
COc1cccc2nc(N)nc(N)c12	> 66.7
Nc1nc(N)c2cccc(Oc3ccccc3)c2n1	9.2
CCCCCCCCOc1cccc2nc(N)nc(N)c12	4.1
CC(C)(C)Sc1cccc2nc(N)nc(N)c12	5.9
COc1cccc2c(N)nc(N)nc12	> 1.9
CC(C)(C)Nc1cccc2nc(N)nc(N)c12	> 200
CCCCOc1cccc2nc(N)nc(N)c12	> 200
CC(C)(C)COc1cccc2nc(N)nc(N)c12	8.1
Nc1nc(N)c2c(OC3CCCC3)cccc2n1	> 1000
Nc1nc(N)c2c(OC3CCCCC3)cccc2n1	> 76.9
CN(C)c1cccc2nc(N)nc(N)c12	> 3
CC(C)(C)Oc1cccc2nc(N)nc(N)c12	> 1000
Nc1nc(N)c2c(OCC(F)(F)F)cccc2n1	> 1000

* * *

TEST_DESCRIPTION: Cytotoxicity against hamster BHK cells
Assay type: cell-based, Mesocricetus auratus
RECORDED_METRIC: CC50

CN(C)c1cccc2nc(N)nc(N)c12	> 10 µM
CC(C)(C)Nc1cccc2nc(N)nc(N)c12	2.5 µM
CC(C)(C)Oc1cccc2nc(N)nc(N)c12	> 10 µM
Nc1nc(N)c2cccc(Oc3ccccc3)c2n1	0.55 µM
Nc1nc(N)c2c(F)cccc2n1	> 10 µM
COc1cccc2nc(N)nc(N)c12	> 10 µM
Nc1nc(N)c2c(OC3CCCCC3)cccc2n1	> 10 µM
CC(C)(C)COc1cccc2nc(N)nc(N)c12	0.65 µM
CC(C)(C)S(=O)(=O)c1cccc2nc(N)nc(N)c12	> 10 µM
Nc1nc(N)c2c(OCc3ccccc3)cccc2n1	> 10 µM
CCCCCCCCOc1cccc2nc(N)nc(N)c12	0.73 µM
Nc1nc(N)c2cc(Oc3ccccc3)ccc2n1	> 10 µM
COc1ccc2nc(N)nc(N)c2c1	> 10 µM
Nc1nc(N)c2c(OC3CCCC3)cccc2n1	> 10 µM
CCCCOc1cccc2nc(N)nc(N)c12	> 10 µM
COc1cccc2c(N)nc(N)nc12	> 10 µM
Nc1nc(N)c2c(OCC(F)(F)F)cccc2n1	> 10 µM
Nc1nc(N)c2ccccc2n1	> 10 µM
CC(C)(C)Sc1cccc2nc(N)nc(N)c12	5.3 µM
Nc1nc(N)c2c(N3CCCC3)cccc2n1	1.2 µM
Nc1nc(N)c2c(Oc3ccccc3)cccc2n1	> 10 µM
COc1ccc2c(N)nc(N)nc2c1	> 10 µM
Nc1nc(N)c2ccc(Oc3ccccc3)cc2n1	> 10 µM
CCOc1cccc2nc(N)nc(N)c12	> 10 µM

* * *

TEST_DESCRIPTION: Half life in rat at 20 mg/kg, po administered as single dose
Assay type: ADME, organism-based
Parameters: dose 20 mg/kg, route oral
EXPERIMENTAL_CONDITIONS: in vivo
RECORDED_METRIC: half-life (h)

CC(C)(C)Oc1cccc2nc(N)nc(N)c12	5
